Test: method code SF-AS, from DOI: 10.1002/zfch.19860260715
Details: pH 7.4
Recorded endpoint: logD

a. CC(=O)NNC(=O)Nc1ccc(C#N)cc1
b. CCOc1ccc(NC(=O)NNC(C)=O)cc1
Query :: Of the pair a and b , name the member with the lesser recorded logD. Provide the label of your selected option as the answer.
Result :: a

I. CC(=O)NNC(=O)Nc1ccc(C(C)(C)C)cc1
II. CC(=O)NNC(=O)Nc1ccc(C)cc1
III. COc1cccc(NC(=O)NNC(C)=O)c1
Query :: Sort low-to-high on logD, please. Please respond with the labels ordered as the question requires.
Result :: III, II, I

I. CC(=O)NNC(=O)Nc1cccc(C)c1
II. CC(=O)NNC(=O)Nc1ccc(N(C)C)cc1
III. COc1ccc(NC(=O)NNC(C)=O)cc1
IV. CC(=O)NNC(=O)Nc1cccc(C(F)(F)F)c1
Query :: Arrange the 4 entries by logD so the values rise. Reply with the labels, ordered as the question asks.
Result :: III, II, I, IV
(III: 0.06, II: 0.11, I: 0.77, IV: 1.63)

These entries and their values trace back to the SangsterLogP compilation.
